# assay-protocol: NCI Yeast Anticancer Drug Screen. Data for the sgs1 mgt1 strain (AID 161);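 note: 0% = growth of cultures given vehicle only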
# run-conditions: S. cerevisiae sgs1 mgt1 strain, at 50.0 µM, active compounds read high
About 79,000 compounds went through this panel and 15% of them were active in at least one assay; those are over-represented in the sample as a whole.
Overview of reported growth inhibition across a group of molecules:
Please reply with the bare figure in % and do not write the unit itself.

Use the examples below as a reference point.
> print(dat)
                                   molecule           property  observed
1                        OCCOc1ccc(Cl)cc1Cl  growth inhibition     -18.2
2  CCCCCCCCCCCCCCCC(=O)OCC(O)C1OC(=O)C(O)=C1O (centres undefined)  growth inhibition       4.6
3  Cc1ccc(S(=O)(=O)NNC(=O)c2cc(C(=O)NNS(=O)(=O)c3ccc(C)cc3)c(C)nc2C)cc1  growth inhibition       6.9
4             COC1=C(N)C(=O)c2nc(C)ccc2C1=O  growth inhibition      55.5
5  CN(C)c1ccc(/C=C2\N=C(c3ccc([N+](=O)[O-])cc3)OC2=O)cc1  growth inhibition      17.1
6                            c1cnc2ncncc2n1  growth inhibition     -8.55

# ---- query molecule ----
stdin: I am curious: what growth inhibition value has been reported for O=C(CCc1ccccc1Cl)CC(=O)CC(O)(c1ccccc1)c1ccccc1 ?
stdout: 70.5

====

# assay-protocol: NCI Yeast Anticancer Drug Screen. Data for the mec2-1 strain (AID 157)
# run-conditions: S. cerevisiae mec2-1 strain, at 50.0 µM, active compounds read high
About 79,000 compounds went through this panel and 15% of them were active in at least one assay; those are over-represented in the sample as a whole. Activity calls are given as the source filed them. No stated cut-off is given here; in the data, active means growth inhibition above about 70%; inactive means the rest.
property: growth inhibition

Use the examples below as a reference point.
> print(dat)
                                   molecule           observed
1  NCC(c1ccccc1)C1CCCCC1 (centres undefined)  -2.35% (inactive)
2   CCn1c(=O)c(C(=O)O)c(Cl)c2cc3c(cc21)OCO3      9% (inactive)
3                       CCCCCCCCCCCCCC(N)=O  -46.5% (inactive)

# ---- query molecule ----
stdin: I am curious: what growth inhibition value has been reported for CC(=O)N(C)Cc1c(O)ccc2ccccc12 ?
stdout: -21.2% (inactive)

====

# assay-protocol: NCI Yeast Anticancer Drug Screen. Data for the sgs1 mgt1 strain (AID 161);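 note: 0% = growth of cultures given vehicle only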
# run-conditions: S. cerevisiae sgs1 mgt1 strain, at 50.0 µM, active compounds read high
About 79,000 compounds went through this panel and 15% of them were active in at least one assay; those are over-represented in the sample as a whole. Where a SMILES comes first, the peptide text is derived from it. The star is where a group is joined. Cbz = O=C(OCc1ccccc1)*
property: growth inhibition (%)
Please reply with the bare figure in % and do not write the unit itself.

Use the examples below as a reference point.
> print(dat)
                                    compound           property  value.unit  observed
 1  CC1C=C(OC(=O)c2ccccc2)C(=O)C(n2cc(F)c(=O)n(C(=O)c3ccccc3)c2=O)O1 (configuration not stated)  growth inhibition           %      68.7
 2  CCCCC(CC)COC(=O)Cc1ccccc1 (configuration not stated)  growth inhibition           %      15.8
 3  c1ccc2c[n+](CCCC[n+]3ccc4ccccc4c3)ccc2c1  growth inhibition           %      22.4
 4           COc1ccc2[nH]c3c(c(=O)c2c1)CCCC3  growth inhibition           %      2.85
 5            COc1cccc(-n2cnc3c(SC)ncnc32)c1  growth inhibition           %      4.75
 6       COc1c(C)cc(-c2cc(C)c(OC)c(C)c2)cc1C  growth inhibition           %       1.7
 7         CS(=O)(=O)Oc1c(Cl)cc(Cl)c2cccnc12  growth inhibition           %     -3.75
 8  CCOC(=O)c1ccccc1S(=O)(=O)c1ccccc1C(=O)OCC  growth inhibition           %      9.85
 9                   CCCCC(C(=O)OCC)C(=O)OCC  growth inhibition           %     -6.35
10  CC(C)C(NC(=O)C(Cc1ccc(O)cc1)NC(=O)OCc1ccccc1)C(=O)O (stereo not drawn) (Cbz-Tyr-Val-OH; configuration not given here)  growth inhibition           %     -3.85

stdin: I am curious: what growth inhibition value has been reported for COc1ccc(C)cc1N ?
stdout: -1.15

stdin: I am curious: what growth inhibition value has been reported for COc1ccc(NC(C)=O)cc1C1CCC(=O)N1 (configuration not stated) ?
stdout: -1.65
